FYI, the data here is from paper PMC4336329.

target-under-test: human ether-à-go-go-related gene (hERG) potassium channel (human, UniProt Q12809);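 note: peak tail current of the secondary pulse compared with the same well before compound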
Sequence (Q12809 whole entry, looked up): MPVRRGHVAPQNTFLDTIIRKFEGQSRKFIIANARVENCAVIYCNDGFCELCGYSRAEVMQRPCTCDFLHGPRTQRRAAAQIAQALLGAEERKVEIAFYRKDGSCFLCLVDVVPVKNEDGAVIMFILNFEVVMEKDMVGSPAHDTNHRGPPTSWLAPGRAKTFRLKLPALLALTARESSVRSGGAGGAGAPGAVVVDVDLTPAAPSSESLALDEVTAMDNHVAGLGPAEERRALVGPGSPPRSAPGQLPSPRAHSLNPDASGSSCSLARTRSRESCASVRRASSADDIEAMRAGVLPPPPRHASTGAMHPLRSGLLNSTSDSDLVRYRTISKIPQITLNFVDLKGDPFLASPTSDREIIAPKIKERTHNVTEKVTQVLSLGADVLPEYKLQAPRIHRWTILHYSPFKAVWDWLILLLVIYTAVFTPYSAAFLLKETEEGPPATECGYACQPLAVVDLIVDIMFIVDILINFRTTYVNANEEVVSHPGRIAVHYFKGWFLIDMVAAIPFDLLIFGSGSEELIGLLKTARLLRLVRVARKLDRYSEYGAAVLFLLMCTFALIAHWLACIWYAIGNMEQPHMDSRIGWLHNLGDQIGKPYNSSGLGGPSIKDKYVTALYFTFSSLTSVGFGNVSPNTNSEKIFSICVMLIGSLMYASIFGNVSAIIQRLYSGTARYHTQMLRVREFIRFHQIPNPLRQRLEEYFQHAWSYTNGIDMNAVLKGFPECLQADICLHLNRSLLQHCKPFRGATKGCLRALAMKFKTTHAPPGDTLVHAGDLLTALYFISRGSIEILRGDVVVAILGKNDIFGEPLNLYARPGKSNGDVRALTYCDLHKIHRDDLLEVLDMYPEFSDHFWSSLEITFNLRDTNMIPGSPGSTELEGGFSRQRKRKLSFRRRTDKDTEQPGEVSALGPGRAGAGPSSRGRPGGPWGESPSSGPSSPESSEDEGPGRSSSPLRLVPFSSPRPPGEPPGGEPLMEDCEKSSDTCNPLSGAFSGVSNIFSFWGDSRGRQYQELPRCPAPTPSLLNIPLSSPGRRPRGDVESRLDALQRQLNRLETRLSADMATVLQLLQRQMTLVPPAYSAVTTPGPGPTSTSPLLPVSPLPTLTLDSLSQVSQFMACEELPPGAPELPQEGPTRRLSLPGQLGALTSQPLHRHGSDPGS
measurement-description: primary screen, population patch clamp on CHO cells stably expressing hERG; higher = less effect of the substance
Among all 310,000 compounds or so, about 14,000 (4.5%) showed an effect of 50% or more. The effect is printed as a negative number. This excerpt belongs to a sample that is enriched for strong results.
hERG current change (%, negative = inhibition) at 10uM values by entry
Just the number please, in %, no unit attached.

1) Cc1ccc(C(=O)c2coc3ccc(OCC(=O)O)cc23)cc1 = 2.16
2) CCOc1ccc(Nc2nc(N)nc(CSC(=S)N3CCOCC3)n2)cc1 = -2
3) CC[n+]1c(C)sc2cc(C)ccc21.[I-] = 15

Param item = CCOC(=O)N1CCN(Cc2nc(N)nc(Nc3ccc(OC)cc3)n2)CC1 ; retrieve measured hERG current change (%, negative = inhibition) at 10uM. -62.4

Param item = Cc1ccc(NC(=O)CSc2nc(=O)cc(N)n2-c2ccccc2)cc1 ; retrieve measured hERG current change (%, negative = inhibition) at 10uM. 20.3

====

target-under-test: human ether-à-go-go-related gene (hERG) potassium channel (human);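 note: peak tail current of the secondary pulse compared with the same well before compound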
measurement-description: primary screen, population patch clamp on CHO cells stably expressing hERG; higher = less effect of the substance
Screen size: about 310,000 compounds; about 14,000 (4.5%) showed an effect of 50% or more. Effects have a minus sign here. The entries come from a sample that favours strong results as a whole.
measurement-kind: hERG current change (%, negative = inhibition) at 10uM (%)
Just the number please, in %, no unit attached.

1. COc1ccccc1CCn1c(N)cc(=O)[nH]c1=O = 18.4
2. CCOc1ccc(-c2nnc3n2N=C(c2ccc(OC)cc2)CS3)cc1 = 0.919
3. Cc1cc(Nc2n[nH]c(N)c2C#N)ccc1F = -70.2
4. CCC(C)NC(=O)c1ccc(C(=O)c2ccccc2)cc1 (stereo not drawn) = 12.7
5. COc1ccc(-c2cc(C(=O)N3CCCCCC3)no2)cc1OC = 7.06
6. Cc1ccccc1NC(=O)c1csc2c1CCCC2 = -20.9
7. C#CCOCCOCCOCCNc1nc(N2CCN(C(=O)[C@H]([C@@H](C)CC)n3cc([C@@H](N)Cc4ccc(O)cc4)nn3)CC2)nc(N2CCN(C(=O)[C@H](Cc3cc4ccccc4[nH]3)n3cc([C@@H](N)C(C)CC)nn3)CC2)n1.Cl (stereo partly drawn) = 3.33
8. COc1ccc(NC(C)=O)cc1NC(=O)CSc1nnc(-c2ccccn2)n1C = -7.69

Let's switch to this molecule now.
Param item = CCOc1ccc(C2=Nn3c(nnc3-c3ccccc3OC)SC2)cc1 ; retrieve measured hERG current change (%, negative = inhibition) at 10uM. -63.4

====

hERG current change (%, negative = inhibition) at 10uM values by entry
target-under-test: human ether-à-go-go-related gene (hERG) potassium channel (human);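 note: peak tail current of the secondary pulse compared with the same well before compound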
measurement-description: primary screen, population patch clamp on CHO cells stably expressing hERG; higher = less effect of the substance
The whole screen tested about 310,000 compounds, of which about 14,000 (4.5%) showed an effect of 50% or more. Effects have a minus sign here. The list comes from a sample in which strong results are over-represented; it also holds close analogues and randomly drawn compounds.
Just the number please, in %, no unit attached.

These recorded examples may help you get a feel for the data.
1. COc1cccc(S(=O)(=O)Nc2ccc(C(=O)Nc3ccncc3)cc2)c1 = 2.7
2. COc1cccc2cc(C(C)N(CCCN3CCOCC3)C(=S)Nc3ccccc3C)oc12 (stereo not drawn) = -7.78
3. CCOC(=O)N1CCN(c2ccnc3cc(Cl)ccc23)CC1 = -66

Param item = O=C(Cc1noc2ccccc12)Nc1ccccn1 ; retrieve measured hERG current change (%, negative = inhibition) at 10uM. 6.57

Param item = CCN(CC(=O)NCc1cccs1)C(=O)c1cccc(S(=O)(=O)N2CCc3ccccc32)c1 ; retrieve measured hERG current change (%, negative = inhibition) at 10uM. -71.3

Param item = CCN(CC(=O)Nc1cccc(OC)c1)C(=O)c1cccc(S(=O)(=O)N2CCc3ccccc32)c1 ; retrieve measured hERG current change (%, negative = inhibition) at 10uM. -1.63

Param item = CN1CCN(C(=O)OC2c3nccnc3C(=O)N2c2ccc(Cl)cn2)CC1 (stereo not drawn) ; retrieve measured hERG current change (%, negative = inhibition) at 10uM. 13.9

Param item = O=C(Cn1ccsc1=NC(=O)c1ccco1)c1ccccc1 ; retrieve measured hERG current change (%, negative = inhibition) at 10uM. -6.93

Param item = CCCC(C)NC(=O)c1sc2nc3n(c(=O)c2c1C)CCC3 (stereo not drawn) ; retrieve measured hERG current change (%, negative = inhibition) at 10uM. -6.29

Param item = CCC(C)c1ccc(NC(=S)NC(C)C2CCCO2)cc1 (stereo not drawn) ; retrieve measured hERG current change (%, negative = inhibition) at 10uM. -6.84

Param item = O=C(O)CSCC(=O)N1CCN(c2ccnc3cc(Cl)ccc23)CC1 ; retrieve measured hERG current change (%, negative = inhibition) at 10uM. 9.15

Param item = CCOC(=O)N1CCN(c2cc3nccnc3cc2F)CC1 ; retrieve measured hERG current change (%, negative = inhibition) at 10uM. -12.5

Param item = CCN(CC(=O)NCc1cccs1)S(=O)(=O)c1ccc(F)cc1 ; retrieve measured hERG current change (%, negative = inhibition) at 10uM. -85

Param item = CCN(CC(=O)NCc1cccs1)S(=O)(=O)c1ccc(C(C)C)cc1 ; retrieve measured hERG current change (%, negative = inhibition) at 10uM. -53.3

Param item = CCN(CC(=O)NCc1cccs1)S(=O)(=O)c1ccc(NC(C)=O)cc1 ; retrieve measured hERG current change (%, negative = inhibition) at 10uM. -7.22

====

target-under-test: human ether-à-go-go-related gene (hERG) potassium channel (human);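 note: peak tail current of the secondary pulse compared with the same well before compound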
measurement-description: primary screen, population patch clamp on CHO cells stably expressing hERG; higher = less effect of the substance
In all, about 310,000 compounds went through this assay and about 14,000 (4.5%) showed an effect of 50% or more. Effects have a minus sign here. The entries come from a sample that favours strong results as a whole.
hERG current change (%, negative = inhibition) at 10uM values by entry
Just the number please, in %, no unit attached.

These recorded examples may help you get a feel for the data.
1) CC(=O)c1ccccc1NS(=O)(=O)c1ccc2c(c1)CC(=O)N2 = 2.66
2) CC(C)C[C@H](NC(=O)C1CC(=O)N(c2ccc3c(c2)OCO3)C1)C(=O)NC1CCCCC1 (stereo partly shown) = 22.4
3) c1ccc(-c2ccccc2OCCCCn2ccnc2)cc1 = -26.4
4) Cc1ccccc1N1CCN(S(=O)(=O)c2ccc3ccccc3c2)CC1 = 9.64
5) O=C(NCCCn1ccnc1)c1ccco1 = -4.47
6) CCCCCCCNC1=CC(=O)CC(c2ccccc2)C1 (stereo not shown) = -81.3

Param item = O=C1CC2(CCCCC2)Oc2ccc(OCC(=O)N3CCOCC3)cc21 ; retrieve measured hERG current change (%, negative = inhibition) at 10uM. 3.3

Param item = O=C(Nc1cccc(F)c1)c1ccc2ncsc2c1 ; retrieve measured hERG current change (%, negative = inhibition) at 10uM. 9.49

Param item = O=c1c2[nH]c3ccccc3c2ncn1CCN1CCCCC1 ; retrieve measured hERG current change (%, negative = inhibition) at 10uM. -45.6

Param item = c1ccc(-c2c(-c3ccccc3)n(Cc3ccco3)c3ncnc(NCCCn4ccnc4)c23)cc1 ; retrieve measured hERG current change (%, negative = inhibition) at 10uM. -71.6

Param item = CN(C)CCCNC1=CC(=O)CC(c2ccccc2)C1 (stereo not shown) ; retrieve measured hERG current change (%, negative = inhibition) at 10uM. 3.58

Param item = Cc1nc2ncnn2c(N2CCN(S(=O)(=O)c3ccc(Br)cc3)CC2)c1C ; retrieve measured hERG current change (%, negative = inhibition) at 10uM. -20.7

Param item = COc1ccc(OC2CCN(S(=O)(=O)c3ccccc3)CC2)cc1 ; retrieve measured hERG current change (%, negative = inhibition) at 10uM. -11.6

Param item = O=C1CC2(CCN(C(=O)COc3ccccc3)CC2)Oc2ccccc21 ; retrieve measured hERG current change (%, negative = inhibition) at 10uM. -67.4

Param item = CCOc1ccccc1NC(=O)CN1CCN(C(=O)C2CCCO2)CC1 (stereo not shown) ; retrieve measured hERG current change (%, negative = inhibition) at 10uM. -10.6

Param item = CC(Cc1ccccc1Sc1ccc(O)cc1)N(C)C.CCO.Cl (stereo not shown) ; retrieve measured hERG current change (%, negative = inhibition) at 10uM. -69.5

Param item = CC(=O)Nc1ccc(S(=O)(=O)N2CCN(c3cc(C)nc4ncnn34)CC2)cc1 ; retrieve measured hERG current change (%, negative = inhibition) at 10uM. -27.9

Param item = O=C(CCNC(=O)c1ccc([N+](=O)[O-])cc1)NC1CCCCCC1 ; retrieve measured hERG current change (%, negative = inhibition) at 10uM. -25.3

Param item = c1ccc(Cn2ccnc2)cc1 ; retrieve measured hERG current change (%, negative = inhibition) at 10uM. 19.6

Param item = OCCNc1ncnc2c1c(-c1ccccc1)c(-c1ccccc1)n2Cc1ccco1 ; retrieve measured hERG current change (%, negative = inhibition) at 10uM. -44.9

Param item = Cc1sc2ncnc(NCCCn3ccnc3)c2c1C ; retrieve measured hERG current change (%, negative = inhibition) at 10uM. -46.1

Param item = O=C(CCC(=O)N1CCOc2ccccc21)NC1CCN(Cc2ccccc2)CC1 ; retrieve measured hERG current change (%, negative = inhibition) at 10uM. -51

Param item = CN1CCC(Oc2ccccc2Sc2ccccc2)CC1.O=C(O)C(=O)O ; retrieve measured hERG current change (%, negative = inhibition) at 10uM. -64.5

Param item = O=C1CCc2cc(S(=O)(=O)NCc3ccccc3Cl)ccc2N1 ; retrieve measured hERG current change (%, negative = inhibition) at 10uM. -23.4

Param item = CCOC(=O)C(NC(C)=O)(Nc1ccc(F)cc1)C(F)(F)F (stereo not shown) ; retrieve measured hERG current change (%, negative = inhibition) at 10uM. -3.72
